The measurements presented in this section are drawn from patent US20090317326A1.

Assay: Biodistribution of F-18 bombesin analogs in nude mice bearing human prostate cancer PC-3
Conditions: nude, mouse, liver, 135 kBq per animal, total radioactivity
Starred links: 1 amine or outer side, 2 acyl side, 3 side chain; linkers in the order of their positions; H or OH if unused. Non-standard residues stand in square brackets, D forms with d. Residues, ends and D or L forms follow the SMILES beside them. *: point of attachment. γ4hIle = CC[C@H](C)[C@@H](CCC(=O)[*:2])N[*:1]; Benzoyl(3-CN,4-F) = N#Cc1cc(C(=O)*)ccc1F; Ava = NCCCCC(=O)O
Experimental readout: tissue uptake at 1 h (%ID/g)

Compound	Observed
CC[C@H](C)[C@@H](CCC(=O)N[C@@H](CC(C)C)C(N)=O)NC(=O)[C@H](Cc1c[nH]cn1)NC(=O)CNC(=O)[C@@H](NC(=O)[C@H](C)NC(=O)[C@H](Cc1c[nH]c2ccccc12)NC(=O)[C@H](CCC(N)=O)NC(=O)CCCCNC(=O)c1ccc(F)c(C#N)c1)C(C)C ({Benzoyl(3-CN,4-F)-Ava}-QWAVGH[γ4hIle]L-NH2)	0.35

====

Test: Biodistribution of F-18 bombesin analogs in nude mice bearing human prostate cancer PC-3
Details: nude, mouse, kidneys, 135 kBq per animal, total radioactivity
Starred links: 1 amine or outer side, 2 acyl side, 3 side chain; linkers in the order of their positions; H or OH if unused. Non-standard residues stand in square brackets, D forms with d. Residues, ends and D or L forms follow the SMILES beside them. *: point of attachment. γ4hIle = CC[C@H](C)[C@@H](CCC(=O)[*:2])N[*:1]; Benzoyl(3-CN,4-F) = N#Cc1cc(C(=O)*)ccc1F; Ava = NCCCCC(=O)O

Molecule	tissue uptake at 1 h [%ID/g]
CC[C@H](C)[C@@H](CCC(=O)N[C@@H](CC(C)C)C(N)=O)NC(=O)[C@H](Cc1c[nH]cn1)NC(=O)CNC(=O)[C@@H](NC(=O)[C@H](C)NC(=O)[C@H](Cc1c[nH]c2ccccc12)NC(=O)[C@H](CCC(N)=O)NC(=O)CCCCNC(=O)c1ccc(F)c(C#N)c1)C(C)C ({Benzoyl(3-CN,4-F)-Ava}-QWAVGH[γ4hIle]L-NH2)	0.24

====

Tested on: human prostate cancer PC-3
Settings: mouse, in vivo
# T/B annotations
Experimental readout: T/B

                                  substance  observed
0  4F,3CN-Bnz-Arg-Ava-Gln-Trp-Ala-Val-NMeGly-His(3Me)-Sta-Leu-NH2 (RXQWAVGHXL; N-methyl; non-natural residues)      2.57
1  3-CN,4-F-Benzoyl-Arg-Ava-Gln-Trp-Ala-Val-Gly-His(3Me)-Sta-Leu-NH2 (RXQWAVGHXL; non-natural residues)      5.65
2  3-CF3,4-F-Benzoyl-Arg-Ava-Gln-Trp-Ala-Val-NMeGly-His-Sta-Leu-NH2 (RXQWAVGHXL; N-methyl; non-natural residues)      4.56
3  3-CN,4-F-Benzoyl-Arg-Ava-Gln-Trp-Ala-Val-NMeGly-His-Sta-Leu-NH2 (RXQWAVGHXL; N-methyl; non-natural residues)      6.82

====

Experiment: Biodistribution of F-18 bombesin analogs in nude mice bearing human prostate cancer PC-3
Settings: nude, mouse, blood, 135 kBq per animal, total radioactivity
Starred links: 1 amine or outer side, 2 acyl side, 3 side chain; linkers in the order of their positions; H or OH if unused. Non-standard residues stand in square brackets, D forms with d. Residues, ends and D or L forms follow the SMILES beside them. *: point of attachment. γ4hIle = CC[C@H](C)[C@@H](CCC(=O)[*:2])N[*:1]; Benzoyl(3-CN,4-F) = N#Cc1cc(C(=O)*)ccc1F; Ava = NCCCCC(=O)O
Experimental readout: tissue uptake at 1 h (%ID/g)

Compound	Observed
CC[C@H](C)[C@@H](CCC(=O)N[C@@H](CC(C)C)C(N)=O)NC(=O)[C@H](Cc1c[nH]cn1)NC(=O)CNC(=O)[C@@H](NC(=O)[C@H](C)NC(=O)[C@H](Cc1c[nH]c2ccccc12)NC(=O)[C@H](CCC(N)=O)NC(=O)CCCCNC(=O)c1ccc(F)c(C#N)c1)C(C)C ({Benzoyl(3-CN,4-F)-Ava}-QWAVGH[γ4hIle]L-NH2)	0.05
